- assay.target: Neutrophil collagenase (Homo sapiens);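 also: recombinant human MMP8 enzyme, percent inhibition read after 30 min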
- experimental.setup: at 1 mM
measured.property: inhibition (%)
Answer in %, number only, no unit symbol.

As a guide, the following entries are already answered.
Cc1cc(=O)c(O)c(CO)o1; 53
c1cnc2c(c1)ccc1cccnc12; 100
O=C(O)c1ccccn1; 30

Exercise: Record lookup: for Neutrophil collagenase (Homo sapiens), what inhibition belongs to O=C(O)c1ncccc1O ?
Solution: 56

Exercise: Query Cc1c(O)c(=S)ccn1C next
Solution: 95

---

- assay.target: Nitric oxide synthase, inducible (Mus musculus);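 also: recombinant enzyme, activity read out colorimetrically after 40 min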
- experimental.setup: at 1 mM
measured.property: inhibition (%)
Answer in %, number only, no unit symbol.

As a guide, the following entries are already answered.
Cc1ccc(O)c(C(=O)O)c1; 21
C1CNCCNCCN1; 0
Cn1cccc(O)c1=O; -5

Exercise: GET /values?readout=inhibition&item= O=C(O)c1ccc2cccc(O)c2n1
Solution: 29

Exercise: Query O=C(O)c1c(O)cccc1O next
Solution: 17

Exercise: Query CC(=O)C(Cl)C(C)=O next
Solution: 80

Exercise: Query CCc1occc(=O)c1O next
Solution: 8

Exercise: Query O=C(O)c1ccccc1O next
Solution: 13

Exercise: Query O=C(O)c1cccnc1C(=O)O next
Solution: 5

Exercise: Query Cc1cc(=O)c(O)c(CCl)o1 next
Solution: 6

---

- assay.target: Polyunsaturated fatty acid 5-lipoxygenase (Homo sapiens) (UniProt P09917)
- Sequence (P09917 whole entry): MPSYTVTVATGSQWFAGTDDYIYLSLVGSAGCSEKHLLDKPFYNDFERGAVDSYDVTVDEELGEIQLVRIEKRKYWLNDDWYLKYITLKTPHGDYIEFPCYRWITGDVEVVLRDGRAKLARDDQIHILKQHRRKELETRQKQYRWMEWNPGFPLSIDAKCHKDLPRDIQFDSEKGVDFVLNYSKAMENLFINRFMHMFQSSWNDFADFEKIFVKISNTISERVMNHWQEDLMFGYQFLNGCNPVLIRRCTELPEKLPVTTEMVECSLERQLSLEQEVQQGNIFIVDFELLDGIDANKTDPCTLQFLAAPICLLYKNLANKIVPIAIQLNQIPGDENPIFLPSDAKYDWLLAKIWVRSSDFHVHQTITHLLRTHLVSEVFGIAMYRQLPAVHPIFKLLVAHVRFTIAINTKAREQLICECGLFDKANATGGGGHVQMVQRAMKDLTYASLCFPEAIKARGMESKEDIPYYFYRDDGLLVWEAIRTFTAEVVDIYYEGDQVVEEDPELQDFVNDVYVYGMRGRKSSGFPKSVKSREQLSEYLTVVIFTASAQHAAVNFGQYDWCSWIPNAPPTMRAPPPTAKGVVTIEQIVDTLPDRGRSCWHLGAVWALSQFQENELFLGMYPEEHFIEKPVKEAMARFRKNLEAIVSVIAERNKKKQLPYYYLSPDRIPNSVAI
- assay.text: Inhibition of human recombinant 5-lipoxygenase at 1 mM after 10 mins by fluorescence assay
measured.property: inhibition (%)
Answer in %, number only, no unit symbol.

As a guide, the following entries are already answered.
O=C(O)c1cccc(O)c1O; 80
CCn1ccc(=O)c(O)c1C; 80

Exercise: GET /values?readout=inhibition&item= O=C1C=C(O)C(=O)c2ccccc21
Solution: 100

Exercise: Query [O-][n+]1cccc2cccc(O)c21 next
Solution: 66

Exercise: Query CC(=O)CC(C)=O next
Solution: 42

Exercise: Query Oc1cccc2cccnc12 next
Solution: 61

Exercise: Query O=c1cc(CO)occ1O next
Solution: 84

---

- assay.target: Tyrosinase (Agaricus bisporus)
- Sequence (O42713 whole entry): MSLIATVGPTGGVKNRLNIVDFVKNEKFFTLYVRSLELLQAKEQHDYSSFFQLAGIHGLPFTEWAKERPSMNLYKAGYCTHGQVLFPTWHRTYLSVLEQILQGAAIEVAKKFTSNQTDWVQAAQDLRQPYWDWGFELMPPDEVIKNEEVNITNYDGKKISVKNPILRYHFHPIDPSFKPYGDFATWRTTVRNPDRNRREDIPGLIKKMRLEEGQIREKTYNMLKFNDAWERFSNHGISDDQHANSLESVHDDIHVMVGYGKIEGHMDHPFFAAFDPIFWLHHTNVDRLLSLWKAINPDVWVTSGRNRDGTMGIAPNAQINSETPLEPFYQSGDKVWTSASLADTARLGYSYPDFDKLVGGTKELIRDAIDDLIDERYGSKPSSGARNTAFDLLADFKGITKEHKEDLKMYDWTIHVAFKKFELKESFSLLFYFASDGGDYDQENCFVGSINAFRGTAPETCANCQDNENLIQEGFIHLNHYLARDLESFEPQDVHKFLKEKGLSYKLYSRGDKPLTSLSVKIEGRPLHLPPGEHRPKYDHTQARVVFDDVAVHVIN
measured.property: IC50 (µM)
Answer in µM, number only, no unit symbol.

Exercise: GET /values?readout=IC50&item= Cc1occc(=S)c1O
Solution: 3.8

---

- assay.target: 72 kDa type IV collagenase (Homo sapiens, UniProt P08253)
- Sequence (P08253 110-660 limits assumed): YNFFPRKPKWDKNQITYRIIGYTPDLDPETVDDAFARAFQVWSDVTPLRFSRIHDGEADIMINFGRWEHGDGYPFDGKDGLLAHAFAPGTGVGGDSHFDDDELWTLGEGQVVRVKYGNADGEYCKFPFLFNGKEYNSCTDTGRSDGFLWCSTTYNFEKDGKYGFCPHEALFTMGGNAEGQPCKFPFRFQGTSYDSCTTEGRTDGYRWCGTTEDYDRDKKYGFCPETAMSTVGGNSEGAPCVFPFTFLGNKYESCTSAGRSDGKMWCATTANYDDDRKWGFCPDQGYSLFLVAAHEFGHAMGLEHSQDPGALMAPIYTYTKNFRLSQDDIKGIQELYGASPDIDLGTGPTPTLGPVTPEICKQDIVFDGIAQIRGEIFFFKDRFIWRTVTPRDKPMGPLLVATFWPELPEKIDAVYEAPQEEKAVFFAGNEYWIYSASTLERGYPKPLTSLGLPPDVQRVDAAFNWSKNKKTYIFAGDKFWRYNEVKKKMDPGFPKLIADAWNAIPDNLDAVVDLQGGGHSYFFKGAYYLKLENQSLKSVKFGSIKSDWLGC
- experimental.setup: at 1 mM
Item-by-item account of inhibition
Answer in %, number only, no unit symbol.

As a guide, the following entries are already answered.
OCc1ccnc(-c2cc(CO)ccn2)c1; 77
Oc1coccc1=S; 100
Cc1cc(O)nc(O)n1; -7
C1CNCCNCCN1; 100
CCc1c(O)c(=O)ccn1CC; 17
O=C(O)c1ccccn1; 25
O=c1cc[nH]c(=S)[nH]1; 47
CCn1ccc(=O)c(O)c1C; 16

Then this molecule:
Exercise: GET /values?readout=inhibition&item= CCCCc1ccc(C(=O)O)nc1
Solution: 43

---

- assay.target: 72 kDa type IV collagenase (Homo sapiens);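 also: recombinant human enzyme, inhibition read after a 30 min incubation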
- experimental.setup: at 1 mM
Item-by-item account of inhibition

As a guide, the following entries are already answered.
O=C(O)c1cc(F)ccc1O; -2%
CC(C)c1cccc(=O)c(O)c1; 90%
Cc1cc(=O)c(O)c(CCl)o1; 44%
Oc1ccc2ccccc2c1O; 71%
O=C(O)c1cccc(O)c1O; -1%

Exercise: Record lookup: for 72 kDa type IV collagenase (Homo sapiens), what inhibition belongs to O=C(O)c1cccc(=O)n1O ?
Solution: 60%

Exercise: Query Cc1cc(C)nc(S)n1 next
Solution: 55%

Exercise: Query Cc1ccc(S(N)(=O)=O)cc1 next
Solution: -2%

Exercise: Query Cn1cccc(O)c1=S next
Solution: 100%

Exercise: Query Oc1ccc(Cl)c2cccnc12 next
Solution: 60%

Exercise: Query O=c1cc(CCl)occ1O next
Solution: 65%

Exercise: Query O=C(O)c1ncccc1O next
Solution: 58%

Exercise: Query [O-][n+]1cccc2cccc(O)c21 next
Solution: 62%
